biological target: recombinant human 15-PGDH (Homo sapiens, UniProt P15428); construct: purchased R&D Systems; experiment: 15-PGDH enzyme inhibition test; format: biochemical; conditions: 4 nM recombinant human 15-PGDH, 30 μM PGE2, 1 mM NAD+, 60 minutes after starting the reaction; read-out: IC50 Value
Observation type: IC50

Solved cases (5 shown):
>>> assay_result("O=C(c1cnc2c(c1)OCCN2c1ccn2c(=O)n(Cc3ccncc3)nc2c1)N1CCCCC1")
"< 10 nM"
>>> assay_result("Cn1nc2cc(N3CCOc4cc(SC5CCCCC5)cnc43)ccn2c1=O")
"< 10 nM"
>>> assay_result("CN1Cc2ccc(N3CCOc4cc(C(=O)N5CCCCC5)cnc43)cc2C1=O")
"10 to 100 nM"
>>> assay_result("CN1CCN(C(=O)c2cnc3c(c2)OCCN3c2ccc3c(c2)CN(C)C3=O)CC1")
"< 10 nM"
>>> assay_result("CN1Cc2cc(N3CCOc4cc(C(=O)N5CCC(F)(F)CC5)cnc43)ncc2C1=O")
"10 to 100 nM"

Please fill in: IC50 reported for Cn1nc2cc(N3CCN(c4ccccc4)c4cc(C(=O)N5CCC(F)(F)CC5)cnc43)ccn2c1=O = 10 to 100 nM

According to the records, this compound O=C(c1cnc2c(c1)CCCN2c1ccc2c(c1)CN(C1CC1)C2=O)N1CCCCC1 displays IC50 of < 10 nM

Sample CCOc1noc2cc(N3CCOc4cc(C(=O)N5CCCCC5)cnc43)ccc12 ; IC50 observed: < 10 nM

Documented IC50 of CNC(=O)c1ccc(N2CCOc3cc(C(=O)N4CCCCC4)cnc32)cc1 : < 10 nM

Reported IC50 for COCCNC(=O)c1ccc(N2CCCc3cc(C(=O)N4CCC(F)(F)CC4)cnc32)cc1F was < 10 nM

IC50 for CCN1Cc2cc(N3CCCc4cc(C(=O)N5CCC[C@H](C(F)F)C5)cnc43)ccc2C1=O is < 10 nM

IC50 recorded for this compound, O=C(c1cnc2c(c1)CCCN2c1cc2c(cn1)C(=O)N(CC1COC1)C2)N1CCCCC1 , is 10 to 100 nM

IC50 reported for this compound CCn1nc2cc(N3CCCc4cc(C(=O)N5CCC[C@H](F)C5)cnc43)ccn2c1=O : < 10 nM

// sample COCCOCCn1nc2cc(N3CCCc4cc(C(=O)N5CCC[C@H](CF)C5)cnc43)ccn2c1=O , its IC50 was < 10 nM

// field: IC50; key: O=C(c1cnc2c(c1)OCCN2c1ccn2c(=O)n(Cc3ccc(F)cc3)nc2c1)N1CCCCC1 ; value = < 10 nM

Lab note: C[C@@H]1CCCCN1C(=O)c1cnc2c(c1)OCCN2c1ccc2c(c1)CN(C)C2=O gave IC50 of < 10 nM

###

target: recombinant human 15-PGDH (Homo sapiens, UniProt P15428); construct: purchased R&D Systems; test: 15-PGDH enzyme inhibition test; format: biochemical; conditions: 4 nM recombinant human 15-PGDH, 30 μM PGE2, 1 mM NAD+, 60 minutes after starting the reaction; read-out: IC50 Value
Observation type: IC50

>>> assay_result("COCn1nc2cc(N3CCCc4cc(C(=O)N5CCC(F)(F)CC5)cnc43)ccn2c1=O")
"< 10 nM"
>>> assay_result("Cn1nc2cc(N3CCOc4cc(C(=O)N5CCCC6(COC6)C5)cnc43)ccn2c1=O")
"10 to 100 nM"
>>> assay_result("O=C(O)c1ccc(N2CCOc3cc(C(=O)N4CCOCC4)cnc32)cc1")
"10 to 100 nM"
>>> assay_result("CCN1Cc2cc(N3CCCc4cc(C(=O)N5CCCCCCC5)cnc43)ccc2C1=O")
"< 10 nM"
>>> assay_result("CN1CCN(C(=O)c2cnc3c(c2)OCCN3c2ccc(C(=O)O)cc2)CC1")
"10 to 100 nM"
>>> assay_result("COC(=O)C(C)(C)c1ccc(N2CCOc3cc(C(=O)N4CCCCC4)cnc32)cc1")
"> 100 nM"
>>> assay_result("N#Cc1ccc(N2CCCc3cc(C(=O)N4CCCCC4)cnc32)cc1")
"< 10 nM"
>>> assay_result("CN1Cc2cc(N3CCOc4cc(C(=O)N5CCCCC5)cnc43)ncc2C1=O")
"< 10 nM"
>>> assay_result("Cn1nc2cc(N3CCOc4cc(C(=O)NCCCCO)cnc43)ccn2c1=O")
"10 to 100 nM"
>>> assay_result("CCn1nc2cc(N3CCCc4cc(C(=O)N5CCN(C(C)=O)CC5)cnc43)ccn2c1=O")
"> 100 nM"

The recorded IC50 for COCn1nc2cc(N3CCCc4cc(C(=O)N5CCCCC5)cnc43)ccn2c1=O is < 10 nM

In plain terms, Cn1cnc2cc(N3CCOc4cc(C(=O)N5CCCCC5)cnc43)ccc2c1=O has a documented IC50 of < 10 nM

Lab note: measured IC50 of O=C(c1cnc2c(c1)OCCN2c1ccc2nccnc2c1)N1CCCCC1 was < 10 nM

The molecule listed as O=C(O)c1ccc(N2CCCc3cc(C(=O)N4CCCCC4)ccc32)cc1 shows IC50 equal to < 10 nM

Lookup result for Cn1nc2cc(N3CCOc4cc(C(=O)N5CC(F)(F)C5)cnc43)ccn2c1=O ; measured IC50: < 10 nM

Record CCOCCn1nc2cc(N3CCCc4cc(C(=O)N5CCC(F)(F)CC5)cnc43)ccn2c1=O , field IC50: < 10 nM

Entry CCn1nc2cc(N3CCOc4cc(C(=O)N5CCC5)cnc43)ccn2c1=O — recorded IC50 = < 10 nM

###

Target: recombinant human 15-PGDH (Homo sapiens, UniProt P15428)
Construct: purchased R&D Systems
Sequence (P15428 1-266): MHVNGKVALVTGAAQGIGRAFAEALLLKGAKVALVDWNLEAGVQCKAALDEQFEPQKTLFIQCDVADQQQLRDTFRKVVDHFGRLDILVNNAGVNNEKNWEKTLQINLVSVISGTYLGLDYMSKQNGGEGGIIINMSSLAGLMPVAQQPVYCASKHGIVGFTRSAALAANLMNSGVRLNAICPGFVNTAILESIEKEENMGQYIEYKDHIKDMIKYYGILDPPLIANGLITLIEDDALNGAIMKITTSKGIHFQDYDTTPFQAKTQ
Assay: 15-PGDH enzyme inhibition test
Type: biochemical
Settings: 4 nM recombinant human 15-PGDH, 30 μM PGE2, 1 mM NAD+, 60 minutes after starting the reaction; read-out: IC50 Value
Observation type: IC50

>>> assay_result("N#Cc1ccc(N2CCOc3cc(C(=O)N4CCC(F)(F)CC4)ccc32)cc1")
"< 0.01 µM"

Item: NC(=O)c1ccc(N2CCOc3cc(C(=O)N4CCCCC4)cnc32)cc1 | IC50: < 0.01 µM

// IC50 lookup, molecule = O=C(c1cnc2c(c1)OCCN2c1ccc2c(c1)C(C1CC1)=NS2(=O)=O)N1CCCCC1 , result: 0.01 to 0.1 µM

# IC50 (molecule: COc1cc(N2CCOc3cc(C(=O)N4CC=CCC4)ccc32)ccc1C(=O)O ) is < 0.01 µM

###

molecular target: recombinant human 15-PGDH (Homo sapiens, UniProt P15428); construct: purchased R&D Systems; assay: 15-PGDH enzyme inhibition test; format: biochemical; conditions: 4 nM recombinant human 15-PGDH, 30 μM PGE2, 1 mM NAD+, 60 minutes after starting the reaction; read-out: IC50 Value
# reported IC50; entries follow

Illustrative cases are given below, each with its answer.
>>> assay_result("O=C(c1cnc2c(c1)OCCN2c1ccc2ccncc2c1)N1CCCCC1")
"< 0.01 µM"
>>> assay_result("Cn1nc2cc(N3CCOc4cc(C(=O)N5CCC[C@@H]5C(=O)OC(C)(C)C)cnc43)ccn2c1=O")
"> 0.1 µM"
>>> assay_result("Cn1nc2cc(N3CCCc4cc(C(=O)N5CCCCC5)cnc43)ccn2c1=O")
"< 0.01 µM"

Record Cn1oc2cc(N3CCOc4cc(C(=O)N5CCCCC5)cnc43)ccc2c1=O , field IC50: < 0.01 µM

IC50 reported for this compound Cn1cnc2cc(N3CCCc4cc(C(=O)N5CCC(F)(F)CC5)cnc43)ccc2c1=O : < 0.01 µM

// sample CCn1nc2cc(N3CCOc4cc(C(=O)N5CCCCC56COC6)cnc43)ccn2c1=O , its IC50 was > 0.1 µM

Measured IC50 of O=C(O)c1ccc(N2CC[S+]([O-])c3cc(C(=O)N4CCCCC4)ccc32)cc1 (centres unmarked) : 0.01 to 0.1 µM

Quick note, IC50 for NC(=O)c1ccc(N2CCOc3cc(C(=O)N4CCCCC4)ccc32)cn1 landed at < 0.01 µM

###

pIC50 overview
Biological target: recombinant human 15-PGDH (Homo sapiens)
Construct: purchased R&D Systems
Sequence (P15428 1-266): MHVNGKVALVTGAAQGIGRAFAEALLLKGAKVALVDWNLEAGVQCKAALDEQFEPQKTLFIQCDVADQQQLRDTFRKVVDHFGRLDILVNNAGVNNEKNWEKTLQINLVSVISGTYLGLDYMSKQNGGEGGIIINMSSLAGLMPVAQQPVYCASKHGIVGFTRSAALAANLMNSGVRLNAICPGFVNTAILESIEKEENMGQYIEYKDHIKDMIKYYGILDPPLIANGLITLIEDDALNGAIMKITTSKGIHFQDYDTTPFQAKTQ
Assay: 15-PGDH enzyme inhibition test
Type: biochemical
Settings: 4 nM recombinant human 15-PGDH, 30 μM PGE2, 1 mM NAD+, 60 minutes after starting the reaction; read-out: IC50 Value
pIC50: −log10 of the molar value.

Some compounds with known pIC50 results, for comparison:
>>> assay_result("CN(CCCO)C(=O)c1cnc2c(c1)OCCN2c1ccn2c(=O)n(C)nc2c1")
"7.00 to 8.00"
>>> assay_result("CCn1nc2cc(N3CCCc4cc(C(=O)N5CCC[C@H](CF)C5)cnc43)ccn2c1=O")
"> 8.00"
>>> assay_result("Cn1nc2cc(N3CCOc4cc(C(=O)N5CCCCC5(C)C)cnc43)ccn2c1=O")
"< 7.00"
>>> assay_result("CC(=O)N(C)C1CCCN(C(=O)c2cnc3c(c2)OCCN3c2ccn3c(=O)n(C)nc3c2)C1 (stereo not shown)")
"< 7.00"

get_value(item= CCN1Cc2cc(N3CCCc4cc(C(=O)N5CCCCC5)cnc43)ccc2C1=O , readout=pIC50) returns > 8.00

According to the records, this compound Cn1nc2cc(N3CC(F)(F)COc4cc(C(=O)N5CCCCC5)cnc43)ccn2c1=O displays pIC50 of 7.00 to 8.00

Lab book: pIC50 of COc1ccc(CN2Cc3cc(N4CCOc5cc(C(=O)N6CCCCC6)cnc54)ccc3C2=O)cc1 noted as > 8.00

Recorded pIC50 (compound O=C(c1cnc2c(c1)CCCN2c1ccc2c(c1)CN(C1COC1)C2=O)N1CCCCC1 ): > 8.00

Field pIC50 (entry CCCCN1Cc2cc(N3CCCc4cc(C(=O)N5CCCCC5)cnc43)ccc2C1=O ) reads > 8.00

// pIC50 value for Cn1nc2cc(N3CCCc4cc(C(=O)N5CCOCC5)cnc43)ccn2c1=O : 7.00 to 8.00

Lab book: pIC50 of CCCN(C)C(=O)c1cnc2c(c1)OCCN2c1ccn2c(=O)n(C)nc2c1 noted as > 8.00

Short answer for Cn1nc2cc(N3CCCOc4cc(C(=O)N5CCCCCC5)cnc43)ccn2c1=O : pIC50 was > 8.00

Form: compound = CCOCn1nc2cc(N3CCCc4cc(C(=O)N5CCC[C@H](CF)C5)cnc43)ccn2c1=O ; pIC50 = > 8.00

Record O=C(c1cnc2c(c1)OCCN2c1ccn2c(=O)n(-c3ccccc3)nc2c1)N1CCCCC1 . Reported pIC50: > 8.00

Entry CN1Cc2cc(N3CCOc4cc(C(=O)N5CCC[C@@H](C(F)(F)F)C5)cnc43)ccc2C1=O ; pIC50 = > 8.00

Item: CCN1Cc2cc(N3CCCc4cc(C(=O)N5CCC(C)CC5)cnc43)ccc2C1=O | pIC50: > 8.00
